percentage damage caused to the plant, ECHCG for assorted compounds
- System: Echinochloa crus-galli (ECHCG)
- test-summary: Post-emergence test, glasshouse
- Type: in vivo
- conditions-used: 250 g/ha, evaluated after 13 days, Table B1
recorded-endpoint: percentage damage caused to the plant, ECHCG

INSERT INTO measurements (compound, result) VALUES
  ('FC(F)(F)c1cc(Oc2ncc(Cl)cn2)n(-c2ccc(Cl)cc2)n1 [Compound 1.002]', '5 (5=81-100%)'),
  ('Cc1ccc(-n2nc(C(F)(F)F)cc2Oc2ncc(Cl)cn2)cc1 [Compound 1.029]', '2 (2=21-40%)'),
  ('Cc1ccc(-n2nc(C(F)(F)F)cc2Oc2ncc(Cl)cn2)nn1 [Compound 1.012]', '1 (1=0-20%)'),
  ('FC(F)Oc1ccc(-n2nc(C(F)(F)F)cc2Oc2ncc(Cl)cn2)cc1 [Compound 1.028]', '2 (2=21-40%)'),
  ('FC(F)c1cc(Oc2ncc(Cl)cn2)n(-c2ccc(C(F)(F)F)cc2)n1 [Compound 1.005]', '1 (1=0-20%)');
